# Test description: Cytotoxicity against mock-infected human CEM-SS cells
# Assay type: cell-based
Reported CC50 values are given for each entry in this list.
Property name: CC50 (µM)

>>> result_value("CO/N=C(\\Cl)CCC/C=C(/c1ccc(C#N)cc1)c1cc(C)c(OC)c(C(=O)SC)c1")
75.5
>>> result_value("CO/N=C(\\Cl)c1cc(/C(=C\\CCCc2nc(C)no2)c2cccc(C#N)c2)cc(C)c1OC")
25.5
>>> result_value("CO/N=C(\\Cl)CCC/C=C(\\c1cc(C)c(OC)c(C(=O)SC)c1)c1cc(C)c2oc(=O)n(C)c2c1")
7.45
>>> result_value("CO/N=C(\\F)c1cc(/C(=C\\CCCc2nnc(C)o2)c2cccc(C#N)c2)cc(C)c1OC")
1.79
>>> result_value("CO/N=C(\\F)c1cc(/C(=C\\CCCc2nnc(C)o2)c2ccc(C#N)cc2)cc(C)c1OC")
6.72
>>> result_value("CO/N=C(\\Cl)c1cc(/C(=C\\CCCc2nnc(C)o2)c2ccc(C#N)cc2)cc(C)c1OC")
18.1
>>> result_value("CO/N=C(\\Cl)c1cc(/C(=C\\CCCc2nnc(C)o2)c2cc(C)c3onc(OC)c3c2)cc(C)c1OC")
9.67
>>> result_value("CO/N=C(\\Cl)CCC/C=C(\\c1cc(C)c(OC)c(C(=O)SC)c1)c1cc(C)c2onc(OC)c2c1")
7.2
